Form field: koff (one value per entry).
Target: recombinant human IL-6 (human, UniProt P05231 30-212)
Sequence (P05231 30-212 limits assumed): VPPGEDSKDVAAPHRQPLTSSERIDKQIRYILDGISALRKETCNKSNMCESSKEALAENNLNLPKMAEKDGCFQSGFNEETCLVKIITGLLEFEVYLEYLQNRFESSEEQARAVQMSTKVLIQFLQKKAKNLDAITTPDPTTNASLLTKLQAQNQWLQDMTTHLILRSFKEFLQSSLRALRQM
Assay: SPR, IL-6 on CM5 chip, Fab lysate, 25 C
Could you give me the number in s⁻¹? Just the number is fine.

Task: State the recorded koff for this entry: anti-IL-6 Fab, heavy chain L106F (Fab, V domains shown, see m39) VH: EVQLVESGGGLVQPGGSLRLSCAASGFTFSPFAMSWVRQAPGKGLEWVAKISPGGSWTYYSDTVTGRFTFSLDTSKSTAYLQMNSLRAEDTAVYYCARQLWGYYAFDIWGQGTLVTVSS VL: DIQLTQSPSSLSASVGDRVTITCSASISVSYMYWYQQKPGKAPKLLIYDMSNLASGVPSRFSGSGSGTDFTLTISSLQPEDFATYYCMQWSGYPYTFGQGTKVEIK
Result: 0.00601

Task: Follow-up item: anti-IL-6 Fab, light chain D49E (Fab, V domains shown, see m39) VH: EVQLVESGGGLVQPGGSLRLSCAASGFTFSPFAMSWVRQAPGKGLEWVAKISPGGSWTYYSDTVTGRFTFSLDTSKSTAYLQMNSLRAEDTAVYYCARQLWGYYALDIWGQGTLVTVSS VL: DIQLTQSPSSLSASVGDRVTITCSASISVSYMYWYQQKPGKAPKLLIYEMSNLASGVPSRFSGSGSGTDFTLTISSLQPEDFATYYCMQWSGYPYTFGQGTKVEIK
Result: 0.00619

Task: Also, anti-IL-6 Fab, heavy chain A49T (Fab, V domains shown, see m39) VH: EVQLVESGGGLVQPGGSLRLSCAASGFTFSPFAMSWVRQAPGKGLEWVTKISPGGSWTYYSDTVTGRFTFSLDTSKSTAYLQMNSLRAEDTAVYYCARQLWGYYALDIWGQGTLVTVSS VL: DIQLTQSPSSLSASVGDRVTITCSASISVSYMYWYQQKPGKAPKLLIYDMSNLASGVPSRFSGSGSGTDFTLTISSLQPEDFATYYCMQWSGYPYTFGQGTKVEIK please.
Result: 0.00575

From: patent US20240209076A1
